Experiment: Antiproliferative activity against human KU812 cells expressing wild type Bcr-Abl after 72 hrs by CCK-8 assay
Test context: KU812, 72 h
Listed here: items and their measured IC50.
Quick reminder: number only, in nM, skip the unit.

Completed entries (count: 6):
Cc1ccc(C(=O)Nc2ccc(CN3CCC(N(C)C)CC3)c(C(F)(F)F)c2)cc1-n1cc(-c2cnc3[nH]ncc3c2)nn1: 0.43
Cc1ccc(C(=O)Nc2ccc(CN3C[C@H]4CN(C)C[C@H]4C3)c(C(F)(F)F)c2)cc1-n1cc(-c2cnc3[nH]ncc3c2)nn1: 0.4
CN1CCN(Cc2ccc(NC(=O)c3cccc(-n4cc(-c5cnc6[nH]ncc6c5)nn4)c3)cc2C(F)(F)F)CC1: 1.34
Cc1ncn(-c2cc(NC(=O)c3ccc(C)c(-n4cc(-c5cnc6[nH]ncc6c5)nn4)c3)cc(C(F)(F)F)c2)n1: 0.4
CN1CCN(Cc2ccc(NC(=O)c3ccc(Cl)c(-n4cc(-c5cnc6[nH]ncc6c5)nn4)c3)cc2C(F)(F)F)CC1: 0.08
Cc1ccc(C(=O)Nc2ccc(CN3CCN(C)CC3)c(C(F)(F)F)c2)cc1-n1cc(-c2ccc3[nH]ccc3c2)nn1: 19.6

Input "CCc1ccc(C(=O)Nc2ccc(CN3CCN(C)CC3)c(C(F)(F)F)c2)cc1-n1cc(-c2cnc3[nH]ncc3c2)nn1" . Output IC50: 0.39

Kindly note the recorded IC50 for "Cc1ccc(C(=O)Nc2ccc(CN3CCN(C)CC3)c(C(F)(F)F)c2)cc1-n1cc(-c2cnc(NC3CCCCC3)nc2)nn1" , which is 1.57

Entry under test: "Cc1ccc(C(=O)Nc2ccc(CN3CCN(C)CC3)c(C(F)(F)F)c2)cc1-n1cc(-c2cnc(NC(C)C)nc2)nn1" . Its IC50 was 1.44

# IC50 of "Cc1ccc(C(=O)Nc2ccc(CN3CCN(C)CC3)c(C(F)(F)F)c2)cc1-n1cc(-c2cnc(N)nc2)nn1" = 0.2

// recorded IC50 for "Cc1ccc(C(=O)Nc2ccc(CN3CCCCC3)c(C(F)(F)F)c2)cc1-n1cc(-c2cnc3[nH]ncc3c2)nn1" : 0.47

"Cc1ccc(C(=O)Nc2ccc(CN3CCN(C)CC3)c(C(F)(F)F)c2)cc1-n1cc(-c2cnc3ccccn23)nn1" yielded IC50 of 0.16

IC50 reported for this compound "CN1CCN(Cc2ccc(NC(=O)c3ccc(F)c(-n4cc(-c5cnc6[nH]ncc6c5)nn4)c3)cc2C(F)(F)F)CC1" : 0.1

Entry "Cc1ccc(C(=O)Nc2ccc(CN3CCN(C)CC3)c(C(F)(F)F)c2)cc1-n1cc(-c2cnc3[nH]ncc3c2)nn1" — recorded IC50 = 0.11
